Origin of values: patent US10098878B2

biological target: HIF-2α HIS TAG-PASB Domain (Homo sapiens, UniProt Q99814); construct: 100 nM HIF-2α HIS TAG-PASB Domain; experiment: HIF-2α Scintillation Proximity Assay (SPA); assay type: binding; conditions: 150 nM Compound 211 probe, 100 nM HIF-2α HIS TAG-PASB Domain; read-out: SPA IC50
Sequence (Q99814 240-350 limits assumed): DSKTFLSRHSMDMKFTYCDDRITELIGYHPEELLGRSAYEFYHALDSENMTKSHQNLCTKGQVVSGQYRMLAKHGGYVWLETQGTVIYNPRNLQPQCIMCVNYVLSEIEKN
Can you tell me IC50 for the items I'm about to list?
Give just the numeric value; nM need not be written.

Inquiry: Which value of IC50 has been reported for CS(=O)(=O)c1ccc(Oc2cc(F)cc(C#N)c2)c2c1[C@H](O)C(F)(F)[C@@H]2O in the records?
Reply text: 150

Inquiry: Which value of IC50 has been reported for N#Cc1cc(F)cc(Oc2ccc3c(c2Br)[C@@H](O)C(F)(F)S3(=O)=O)c1 in the records?
Reply text: 7.2

Inquiry: Which value of IC50 has been reported for O=S(=O)(c1ccc(Oc2cc(F)cc(Cl)c2)c2c1[C@H](O)C[C@@H]2CO)C(F)(F)F in the records?
Reply text: 730

Inquiry: Which value of IC50 has been reported for CS(=O)(=O)c1ccc(Oc2cc(F)cc(C#N)c2)c2c1[C@H](O)C(F)(F)[C@H]2O in the records?
Reply text: 8700

Inquiry: Which value of IC50 has been reported for N#Cc1cncc(Oc2ccc(C(F)(F)F)c3c2CC(F)(F)[C@H]3O)c1 in the records?
Reply text: 37

Inquiry: Which value of IC50 has been reported for N#Cc1cc(F)cc(Oc2ccc3c(c2C(F)F)C(=N)C(F)S3(=O)=O)c1 (centres unmarked) in the records?
Reply text: 5800

Inquiry: Which value of IC50 has been reported for CS(=O)(=O)c1ccc(Oc2cncc(C#N)c2)c2c1[C@H](O)C(F)(F)C2 in the records?
Reply text: 180
